Assay: Proposed mechanism(s) of liver damage. [column 'MEC' in source]
Conditions: human
outcomeMeasure: Hepatotoxicity (mechanism)

compound	outcomeMeasure	recordedMeasurement
Nc1ccc(C(=O)O)c(O)c1 [AMINOSALICYLIC ACID]	Hepatotoxicity (mechanism)	Allergic
CCCCCCCCNC(C)C(O)c1ccc(SC(C)C)cc1 (centres undefined) [SULOCTIDIL]	Hepatotoxicity (mechanism)	Allergic

---

Conditions: human
*1 amine or outer side, *2 acyl side, *3 side chain or, on linkers, in order; H or OH if unused. Where a SMILES comes first, the peptide text is derived from it. Bridges are numbered along the chain shown (N, C = ends). [ ]: non-standard residue; d: D form. The star is where a group is joined. ξ: configuration not given here. X2 = N=C1NCCC([C@H](N[*:1])C(=O)[*:2])N1; ΔAla(Z-3-ureido) = NC(=O)N/C=C(\N)C(=O)O; ξβ3hOrn = NCCCC(N)CC(=O)*; Dap = NC[C@H](N)C(=O)O
Quick list: Hepatotoxicity (malignant tumour) per entry.
Lab note: jot the number down without any unit.

compound	Hepatotoxicity (malignant tumour)
Cc1c(C(C)C)c(=O)n(-c2ccccc2)n1C [PROPYPHENAZONE]	0

We next turn to a different compound, shown below.
**Q:** Answer with reported Hepatotoxicity (malignant tumour) of C[C@@H]1NC(=O)[C@@H](N)CNC(=O)[C@H](C2CCNC(=N)N2)NC(=O)/C(=C/NC(N)=O)NC(=O)[C@H](CNC(=O)CC(N)CCCN)NC1=O.N=C1NCCC([C@@H]2NC(=O)/C(=C/NC(N)=O)NC(=O)[C@H](CNC(=O)CC(N)CCCN)NC(=O)[C@H](CO)NC(=O)[C@@H](N)CNC2=O)N1 (stereo partly drawn) [CAPREOMYCIN] (H-[Dap]S[Dap](ξβ3hOrn)[ΔAla(Z-3-ureido)][X2]; lactam 1-C)
**A:** 0
